assayedSystem: ATM (Homo sapiens (Human), UniProt Q13315)
Sequence (Q13315 whole entry): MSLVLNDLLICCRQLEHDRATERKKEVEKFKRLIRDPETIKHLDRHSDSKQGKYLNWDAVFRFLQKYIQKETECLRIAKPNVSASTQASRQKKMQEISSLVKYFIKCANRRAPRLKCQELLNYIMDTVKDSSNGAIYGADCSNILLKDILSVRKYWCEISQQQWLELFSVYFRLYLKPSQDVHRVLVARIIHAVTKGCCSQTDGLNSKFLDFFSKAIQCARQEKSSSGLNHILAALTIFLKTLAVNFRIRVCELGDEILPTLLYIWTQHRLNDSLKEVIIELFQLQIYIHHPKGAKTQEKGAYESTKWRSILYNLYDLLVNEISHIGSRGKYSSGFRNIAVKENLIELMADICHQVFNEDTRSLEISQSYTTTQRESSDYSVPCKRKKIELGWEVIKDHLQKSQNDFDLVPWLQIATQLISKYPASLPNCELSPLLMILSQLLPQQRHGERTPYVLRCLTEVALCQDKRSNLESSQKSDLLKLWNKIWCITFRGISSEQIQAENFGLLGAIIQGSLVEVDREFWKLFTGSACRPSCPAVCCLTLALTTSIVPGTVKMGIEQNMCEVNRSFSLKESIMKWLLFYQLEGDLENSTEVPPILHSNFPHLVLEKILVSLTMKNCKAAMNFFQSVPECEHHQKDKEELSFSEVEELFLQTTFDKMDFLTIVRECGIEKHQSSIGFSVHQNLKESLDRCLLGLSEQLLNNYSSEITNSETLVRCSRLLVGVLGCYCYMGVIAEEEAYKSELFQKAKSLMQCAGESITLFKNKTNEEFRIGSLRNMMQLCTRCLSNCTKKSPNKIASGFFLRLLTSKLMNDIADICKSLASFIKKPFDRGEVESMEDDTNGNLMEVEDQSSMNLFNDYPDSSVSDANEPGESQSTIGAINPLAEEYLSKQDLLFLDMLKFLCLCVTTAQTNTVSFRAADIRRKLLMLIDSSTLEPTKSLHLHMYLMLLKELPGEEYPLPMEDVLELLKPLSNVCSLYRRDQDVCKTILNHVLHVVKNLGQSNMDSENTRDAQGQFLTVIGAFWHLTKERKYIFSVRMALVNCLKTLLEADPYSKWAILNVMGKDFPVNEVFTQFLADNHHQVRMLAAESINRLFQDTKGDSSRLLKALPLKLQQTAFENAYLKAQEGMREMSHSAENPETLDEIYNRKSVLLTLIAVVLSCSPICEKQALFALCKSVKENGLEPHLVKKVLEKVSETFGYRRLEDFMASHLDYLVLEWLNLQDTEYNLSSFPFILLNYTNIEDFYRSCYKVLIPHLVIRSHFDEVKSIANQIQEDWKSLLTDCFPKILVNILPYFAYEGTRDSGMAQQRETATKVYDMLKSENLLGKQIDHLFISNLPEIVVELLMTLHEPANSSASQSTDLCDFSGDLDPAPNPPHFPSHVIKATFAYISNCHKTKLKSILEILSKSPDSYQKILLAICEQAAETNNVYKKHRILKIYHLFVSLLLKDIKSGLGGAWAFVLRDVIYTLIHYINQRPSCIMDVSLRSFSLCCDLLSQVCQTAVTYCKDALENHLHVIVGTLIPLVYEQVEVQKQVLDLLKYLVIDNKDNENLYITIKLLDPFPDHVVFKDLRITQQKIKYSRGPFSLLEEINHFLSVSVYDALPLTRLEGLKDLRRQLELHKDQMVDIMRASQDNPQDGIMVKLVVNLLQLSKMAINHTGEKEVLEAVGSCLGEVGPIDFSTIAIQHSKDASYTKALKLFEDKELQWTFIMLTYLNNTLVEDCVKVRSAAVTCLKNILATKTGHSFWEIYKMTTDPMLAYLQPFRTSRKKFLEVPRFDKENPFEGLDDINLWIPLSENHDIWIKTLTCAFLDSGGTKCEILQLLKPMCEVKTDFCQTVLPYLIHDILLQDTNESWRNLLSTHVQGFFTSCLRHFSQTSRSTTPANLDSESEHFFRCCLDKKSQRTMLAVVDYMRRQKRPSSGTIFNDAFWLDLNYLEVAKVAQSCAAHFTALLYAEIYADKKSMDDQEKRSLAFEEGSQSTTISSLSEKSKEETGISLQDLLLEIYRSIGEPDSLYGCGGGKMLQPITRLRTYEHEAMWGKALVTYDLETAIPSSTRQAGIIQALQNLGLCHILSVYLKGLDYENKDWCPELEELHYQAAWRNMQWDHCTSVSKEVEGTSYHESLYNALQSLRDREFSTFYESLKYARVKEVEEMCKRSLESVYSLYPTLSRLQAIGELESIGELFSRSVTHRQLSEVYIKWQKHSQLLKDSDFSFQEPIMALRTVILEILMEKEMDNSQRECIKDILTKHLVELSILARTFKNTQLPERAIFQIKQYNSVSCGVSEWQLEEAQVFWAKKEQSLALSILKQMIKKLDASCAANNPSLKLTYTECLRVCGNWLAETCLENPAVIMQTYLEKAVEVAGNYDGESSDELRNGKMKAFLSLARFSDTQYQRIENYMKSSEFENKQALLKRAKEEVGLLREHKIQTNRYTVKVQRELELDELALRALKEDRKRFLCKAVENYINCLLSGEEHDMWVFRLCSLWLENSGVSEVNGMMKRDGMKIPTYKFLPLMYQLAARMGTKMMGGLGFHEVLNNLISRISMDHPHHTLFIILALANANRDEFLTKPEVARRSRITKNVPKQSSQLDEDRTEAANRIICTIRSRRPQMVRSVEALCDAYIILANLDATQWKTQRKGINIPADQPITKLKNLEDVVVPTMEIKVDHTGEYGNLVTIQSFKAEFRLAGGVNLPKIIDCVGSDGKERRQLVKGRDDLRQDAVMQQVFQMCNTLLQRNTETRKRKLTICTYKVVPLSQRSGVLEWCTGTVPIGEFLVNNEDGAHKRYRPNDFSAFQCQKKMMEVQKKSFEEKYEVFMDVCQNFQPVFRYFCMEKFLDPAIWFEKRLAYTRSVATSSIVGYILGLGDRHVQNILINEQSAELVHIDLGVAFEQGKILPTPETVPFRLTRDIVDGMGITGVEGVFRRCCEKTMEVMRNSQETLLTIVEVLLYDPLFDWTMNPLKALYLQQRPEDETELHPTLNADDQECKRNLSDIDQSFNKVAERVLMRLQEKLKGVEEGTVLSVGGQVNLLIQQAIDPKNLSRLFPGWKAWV
protocolSummary: ATM in Cell Western Assay (pKAP1 in etoposide-treated MCF-7 cells)
Type: cell-based
settings: MCF-7 cells, etoposide 100 μM, 1 hr, pKAP1 readout
pIC50: −log10 of the molar value. Where a name gives a salt, the structure may show the parent alone.
Measured pIC50, listed per entry.
reportedMetric: pIC50

>  <molecule>
CN1C(=O)C2(CCC2)c2c1cnc1ccc(-c3cnc(CCCCN4CCCCC4)c(NS(C)(=O)=O)c3)cc21

>  <assayedSystem>
ATM (Homo sapiens (Human), UniProt Q13315)

>  <reportedMetric>
pIC50

>  <experimentalValue>
7.00 to 9.00

$$$$
>  <molecule>
CN1C(=O)C2(CCC2)c2c1cnc1ccc(-c3cnc(N4CCC(N5CCCCC5)CC4)c(NS(=O)(=O)C4CC4)c3)cc21 [Example 207, hydrochloride]

>  <assayedSystem>
ATM (Homo sapiens (Human), UniProt Q13315)

>  <reportedMetric>
pIC50

>  <experimentalValue>
7.00 to 9.00

$$$$
>  <molecule>
CNC1CN(c2ncc(-c3cc4c5c(cnc4cc3F)N(C)C(=O)C53CCC3)cc2NS(=O)(=O)N(C)C)C1

>  <assayedSystem>
ATM (Homo sapiens (Human), UniProt Q13315)

>  <reportedMetric>
pIC50

>  <experimentalValue>
7.00 to 9.00

$$$$
>  <molecule>
CN1C(=O)C2(CC2)c2c1cnc1ccc(-c3cnc(OCCCN4CCCC4)c(NS(=O)(=O)c4ccccc4)c3)cc21

>  <assayedSystem>
ATM (Homo sapiens (Human), UniProt Q13315)

>  <reportedMetric>
pIC50

>  <experimentalValue>
> 9.30

$$$$
>  <molecule>
CN1C(=O)C2(CCC2)c2c1cnc1ccc(-c3cnc(N4CCS(=O)(=O)CC4)c(NS(=O)(=O)c4ccccc4)c3)cc21 [Example 135, hydrochloride]

>  <assayedSystem>
ATM (Homo sapiens (Human), UniProt Q13315)

>  <reportedMetric>
pIC50

>  <experimentalValue>
< 7.00

$$$$
>  <molecule>
Cl.[2H]C1([2H])N(CCCOc2ncc(-c3ccc4ncc5c(c4c3)C3(CCC3)C(=O)N5C)cc2NS(=O)(=O)c2ccc(C)nc2)C([2H])([2H])C([2H])([2H])C([2H])([2H])C1([2H])[2H]

>  <assayedSystem>
ATM (Homo sapiens (Human), UniProt Q13315)

>  <reportedMetric>
pIC50

>  <experimentalValue>
7.00 to 9.00

$$$$
>  <molecule>
CN(C)CCCOc1ncc(-c2ccc3ncc4c(c3c2)C2(CC2)C(=O)N4C)cc1NS(=O)(=O)c1ccc(F)c(C#N)c1

>  <assayedSystem>
ATM (Homo sapiens (Human), UniProt Q13315)

>  <reportedMetric>
pIC50

>  <experimentalValue>
7.00 to 9.00

$$$$
>  <molecule>
CN1C(=O)C2(CCC2)c2c1cnc1ccc(-c3cnc(OCCCN4CCC(F)C4)c(NS(C)(=O)=O)c3)cc21 (stereo not shown)

>  <assayedSystem>
ATM (Homo sapiens (Human), UniProt Q13315)

>  <reportedMetric>
pIC50

>  <experimentalValue>
7.00 to 9.00

$$$$
>  <molecule>
CN(C)CCCOc1ncc(-c2ccc3ncc4c(c3c2)C2(CCC2)C(=O)N4C)nc1NS(C)(=O)=O

>  <assayedSystem>
ATM (Homo sapiens (Human), UniProt Q13315)

>  <reportedMetric>
pIC50

>  <experimentalValue>
7.00 to 9.00

$$$$
>  <molecule>
CN(C)CCCOc1ncc(-c2ccc3ncc4c(c3c2)C2(CCC2)C(=O)N4C)cc1NS(=O)(=O)N(C)Cc1ccccc1

>  <assayedSystem>
ATM (Homo sapiens (Human), UniProt Q13315)

>  <reportedMetric>
pIC50

>  <experimentalValue>
7.00 to 9.00

$$$$
>  <molecule>
CC(C)NC1CN(c2ncc(-c3cc4c5c(cnc4cc3F)N(C)C(=O)C53CCC3)cc2NS(C)(=O)=O)C1 [Example 328, hydrochloride]

>  <assayedSystem>
ATM (Homo sapiens (Human), UniProt Q13315)

>  <reportedMetric>
pIC50

>  <experimentalValue>
7.00 to 9.00

$$$$
>  <molecule>
CN(C)CC(O)COc1ncc(-c2ccc3ncc4c(c3c2)C2(CCC2)C(=O)N4C)cc1NS(C)(=O)=O (stereo not shown)

>  <assayedSystem>
ATM (Homo sapiens (Human), UniProt Q13315)

>  <reportedMetric>
pIC50

>  <experimentalValue>
7.00 to 9.00

$$$$
>  <molecule>
CN(C)CCCOc1ncc(-c2cc3c4c(cnc3cc2F)N(C)C(=O)C42CC2)cc1NS(=O)(=O)C1CC1

>  <assayedSystem>
ATM (Homo sapiens (Human), UniProt Q13315)

>  <reportedMetric>
pIC50

>  <experimentalValue>
7.00 to 9.00

$$$$
